assay_name: small-molecule microarray binders of probe aEGFR, primary screen, biochemical, biotinylated probe, 635/667 nm fluorescence (AID 1097);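 further: probe is a biotinylated anti-EGFR antibody binding compounds printed on slides; score combines fluorescence near 667 nm and signal to noise of each spot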
measurement_context: higher = more signal
Entries and their composite z-score values follow.
property_measured: composite z-score

Cc1ccc(S[C@]2(C(=O)NCc3ccccc3)CC(=O)N(Cc3cc(C(F)(F)F)cc(C(F)(F)F)c3)[C@@H]2c2ccc(CO)cc2I)cc1; -0.3
O=C(CS)NCCCCCCNC(=O)[C@@H]1C[C@@H]2C(=O)NCC(=O)N2[C@@H]1c1ccc(O)cc1; -0.218
COc1ccc(CCNC(=O)[C@@]2(Cc3ccccc3I)c3ccccc3C(=O)N(Cc3ccccc3Cl)[C@H]2c2ccc(CO)cc2)cc1; 0.0284
CCN(CC)c1ccc(N2CC=CC34O[C@@H]5C=CCCOC(=O)C5[C@H]3C(=O)N(CCO)[C@@H]4C2=O)cc1 (some centres undefined); -0.201
